Reported binding score by item:
- tested.target: T1, Bdf1 bromodomain 1 (GST-tagged, WT) (Saccharomyces cerevisiae (strain ATCC …, UniProt P35817))
- T1 chain: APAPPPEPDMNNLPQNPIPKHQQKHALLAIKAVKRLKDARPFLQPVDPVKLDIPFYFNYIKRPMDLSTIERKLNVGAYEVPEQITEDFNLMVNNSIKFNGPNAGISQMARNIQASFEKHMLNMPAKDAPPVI
- assay.overview: histone peptide array probed with recombinant GST-bromodomain, signal normalised to myc peptide control
Non-standard residues stand in square brackets, D forms with d. Primed or numbered codes have the meaning given here. No end group written: not given here. Me2s″ = symmetric dimethylarginine (Rme2s); pS = N[C@@H](COP(=O)(O)O)C(=O)O
// no unit, no text: just the number

The following binders have reported results that may help.
PRKQLATKAAR(Me2s″)K[pS]APATGG; 0
ARTKQTARKSTGGK(Ac)APRKQ; 0.00108
ARTKQTARKSTGGKAPRKQ (A Rme2a T Kme2 Q T A Rme2s Kme2 S T G G K A P R K Q); 0

### Prompt For the binder ARTKQTARKSTGGKAPRKQ (A R T Kac Q T A Rme2s Kme3 S T G G K A P R K Q) , what binding score is on record?
### Response 0.00287

### Prompt Ok, now SGRGKGGKGLGKGGAKRHR (pS G Rme2s G Kac G G K G L G K G G A K R H R)
### Response 0.00968
